# Lookup of reported GI50 keyed by entry
- System: KM12
- test summary: NCI tumour cell line growth inhibition, 48 h
The source made the active and inactive calls. Cut-off read from the data, not from the text of the source: active = GI50 up to about 1.1 µM and inactive = higher.
measurement kind: GI50

>  <molecule>
NC1CNC(=O)c2cscc21 (stereo not given)

>  <measurement kind>
GI50

>  <reported>
> 100 µM (inactive)

$$$$
>  <molecule>
CCOC(=O)c1c(N2CCOCC2)ncn(-c2cccc(Cl)c2)c1=O

>  <measurement kind>
GI50

>  <reported>
> 100 µM (inactive)

$$$$
>  <molecule>
N#Cc1c(N)n(-c2nc3ccccc3s2)c(=O)c2cc([N+](=O)[O-])ccc12

>  <measurement kind>
GI50

>  <reported>
19.7 µM (inactive)

$$$$
>  <molecule>
CCOC(=O)NC(C(F)(F)F)(C(F)(F)F)P(=O)(OCC)OCC

>  <measurement kind>
GI50

>  <reported>
43.9 µM (inactive)

$$$$
>  <molecule>
Cc1cccc(C)c1NC(=O)C1C(=O)N(c2c(C)cccc2C)C(=O)/C1=N\NC(N)=S (stereo not given)

>  <measurement kind>
GI50

>  <reported>
> 100 µM (inactive)

$$$$
>  <molecule>
COC(=O)C12OC3CO[Si](C(C)C)(C(C)C)O[Si](C(C)C)(C(C)C)OC3C1Oc1nc(=O)ccn12 (stereo not given)

>  <measurement kind>
GI50

>  <reported>
15.7 µM (inactive)

$$$$
>  <molecule>
CC(=O)c1c(SCCN2CCOCC2)n(-c2ccccc2)c(=S)n(-c2ccccc2)c1=O

>  <measurement kind>
GI50

>  <reported>
> 39.7 µM (inactive)

$$$$
>  <molecule>
CCCCCCCCCCCCNC(C)=O

>  <measurement kind>
GI50

>  <reported>
17.8 µM (inactive)

$$$$
>  <molecule>
O=C1C(Cl)=CC2(C=C1Cl)CCNC1=C2C(=O)c2nc[nH]c2C1=O

>  <measurement kind>
GI50

>  <reported>
43.4 µM (inactive)

$$$$
>  <molecule>
CC1=C(C(=O)Nc2ccccc2)C(c2cc(Cl)cc(Cl)c2)C(C(=O)Nc2ccccc2)=C(C)N1

>  <measurement kind>
GI50

>  <reported>
2.92 µM (inactive)

$$$$

---

- Tested on: SK-OV-3
- test summary: NCI tumour cell line growth inhibition, 48 h
The source made the active and inactive calls. No stated cut-off is given here; in the data, active = GI50 up to about 1.1 µM and inactive = higher.
Classes used: T = active, F = inactive

>  <compound>
CCCCCCCCCCCCNC(C)=O

>  <label value>
F

$$$$
>  <compound>
COc1ccc2c(c1)-c1nc(=S)n(CCCN(C)C)c3ccc([N+](=O)[O-])c(c13)N2

>  <label value>
T

$$$$
>  <compound>
O=C(Nc1cc(Cl)ccc1Cl)C(=O)C(c1cnc2ccccc2n1)[N+](=O)[O-] (centres undefined)

>  <label value>
F

$$$$
>  <compound>
C=CO/N=[N+](\[O-])N(CC)CC

>  <label value>
F

$$$$
>  <compound>
CC(C)(CO)CNc1cc(=O)[nH]c(N)n1

>  <label value>
F

$$$$
>  <compound>
COC(=O)C1CCC(=O)N1CN(C(C)=O)c1ccccc1 (centres undefined)

>  <label value>
F

$$$$
>  <compound>
O=c1c2cc(S(=O)(=O)Nc3ccccc3Cl)ccc2ncn1NS(=O)(=O)c1ccc(Br)cc1

>  <label value>
F

$$$$
>  <compound>
C=CCOc1ccc(C2(c3ccc(OCC=C)cc3)C(=O)Nc3ccccc32)cc1

>  <label value>
F

$$$$
>  <compound>
COc1cccc(C2CC(C)(N3CCCC3)Oc3cc4c(cc32)OCO4)c1O (centres undefined)

>  <label value>
F

$$$$
>  <compound>
COc1ccc(Oc2ccccc2N)cc1

>  <label value>
F

$$$$
>  <compound>
COc1ccc(C=O)cc1OS(=O)(=O)C(F)(F)C(F)(F)C(F)(F)C(F)(F)F

>  <label value>
F

$$$$
>  <compound>
O=C1C(=C(I)I)c2ccccc2-c2ccccc21

>  <label value>
F

$$$$
>  <compound>
CCC(=C(C#N)C#N)c1cc(OC)c(OC)c(OC)c1

>  <label value>
F

$$$$
>  <compound>
Cc1cc(C)n(CN(Cn2nc(C)cc2C)c2ccc(N(Cn3nc(C)cc3C)Cn3nc(C)cc3C)cc2)n1

>  <label value>
F

$$$$
>  <compound>
N#CC1(C#N)C(c2ccc(C3C(C#N)(C#N)C3(C#N)C#N)cc2)C1(C#N)C#N

>  <label value>
F

$$$$
>  <compound>
COC(=O)CCCCC/C(=C\C(=O)C(Cl)(Cl)Cl)OC

>  <label value>
F

$$$$
>  <compound>
Nc1ccccc1CC(O)C(=O)O (centres undefined)

>  <label value>
F

$$$$
>  <compound>
CCOC(=O)NC(C(F)(F)F)(C(F)(F)F)P(=O)(OCC)OCC

>  <label value>
F

$$$$
>  <compound>
Cc1ccc(OC(=O)N2C/C(=C\c3ccccc3)C(=O)/C(=C/c3ccccc3)C2)cc1

>  <label value>
F

$$$$
>  <compound>
CSc1nnc(SC)nn1

>  <label value>
F

$$$$
>  <compound>
Cc1cc2c(c(O)c1-c1c(C)cc(O)c3c1C(=O)C=CC3=O)C(=O)C=CC2=O

>  <label value>
F

$$$$
>  <compound>
O=c1[nH]nc(Cc2ccc(Cl)cc2)n1O

>  <label value>
F

$$$$
>  <compound>
O=C1OC(c2ccccc2)=N/C1=C\c1c(O)cc(O)cc1O

>  <label value>
F

$$$$
>  <compound>
N#C/N=C(\N)NCCO

>  <label value>
F

$$$$

---

- System: Malme-3M
- test summary: NCI tumour cell line growth inhibition, 48 h
Calls of active or inactive are those of the source. No stated cut-off is given here; in the data, active = GI50 up to about 1.1 µM and inactive = higher.

>  <compound>
CC[C@@H]1C[C@@H](O)[C@@H]2[C@H](O)[C@H](O)CN2C1

>  <measured target>
Malme-3M

>  <GI50>
> 100 µM (inactive)

$$$$
>  <compound>
CSc1ccc(C2OC(=O)c3ccccc32)c2ccccc12 (stereo not given)

>  <measured target>
Malme-3M

>  <GI50>
> 100 µM (inactive)

$$$$
>  <compound>
COC(=O)c1cc(C(=CCC[C@H]2CC[C@@]3(C)C(CCC4C3CC[C@@]3(C)C4CC[C@@H]3C(C)CCCC(C)C)C2)c2cc(Cl)c(O)c(C(=O)OC)c2)cc(Cl)c1O (stereo not given in full)

>  <measured target>
Malme-3M

>  <GI50>
> 10 µM (inactive)

$$$$
>  <compound>
COC(=O)C12OC3CO[Si](C(C)C)(C(C)C)O[Si](C(C)C)(C(C)C)OC3C1Oc1nc(=O)ccn12 (stereo not given)

>  <measured target>
Malme-3M

>  <GI50>
14.8 µM (inactive)

$$$$
>  <compound>
CC(=O)N(C(C)=O)n1c(Cc2ccc(Cl)cc2)n[nH]c1=O

>  <measured target>
Malme-3M

>  <GI50>
> 52.7 µM (inactive)

$$$$
>  <compound>
Nc1cccc(/C=C/CN2CCN(CCOC(c3ccccc3)c3ccccc3)CC2)c1

>  <measured target>
Malme-3M

>  <GI50>
18.2 µM (inactive)

$$$$
>  <compound>
O=C1OC(c2ccccc2)=N/C1=C\c1c(O)cc(O)cc1O

>  <measured target>
Malme-3M

>  <GI50>
> 100 µM (inactive)

$$$$
>  <compound>
O=C(CC(C(=O)c1cccs1)c1ccsc1)c1ccsc1 (stereo not given)

>  <measured target>
Malme-3M

>  <GI50>
78.5 µM (inactive)

$$$$
>  <compound>
CC(=O)NC1C(OCc2ccccc2)OC(COC(=O)CCCCCNc2ccc([N+](=O)[O-])c3[nH]c4ccc(O)cc4c(=O)c23)C(O)C1OC(C)C(=O)N[C@@H](C)C(=O)N[C@H](CCC(=O)OCc1ccccc1)C(N)=O (stereo not given in full)

>  <measured target>
Malme-3M

>  <GI50>
1.32 µM (inactive)

$$$$
>  <compound>
CCOC(=O)c1c(C)c2c(n1C)CCc1c[nH]nc1-2

>  <measured target>
Malme-3M

>  <GI50>
> 100 µM (inactive)

$$$$
>  <compound>
O=C1C2C=CC(C2)C(c2ccc(O)cc2)N1O (stereo not given)

>  <measured target>
Malme-3M

>  <GI50>
> 100 µM (inactive)

$$$$
>  <compound>
CC(C)(CO)CNc1nc(N)nc(Cl)c1C=O

>  <measured target>
Malme-3M

>  <GI50>
39.7 µM (inactive)

$$$$
>  <compound>
CC(=O)n1nc(-c2ccccc2)n(/N=C/c2ccc([N+](=O)[O-])cc2)c1=O

>  <measured target>
Malme-3M

>  <GI50>
90.8 µM (inactive)

$$$$
>  <compound>
O=[N+]([O-])c1ccc(-n2nnc(C3=NCCN3)c2-c2ccc(Cl)cc2)cc1

>  <measured target>
Malme-3M

>  <GI50>
> 100 µM (inactive)

$$$$
>  <compound>
CC1(C)OC2[C@@H](CO[C@@]3([C@H]4OC(C)(C)O[C@@H]4CO)OC(C)(C)O[C@@H]23)O1 (stereo not given in full)

>  <measured target>
Malme-3M

>  <GI50>
> 100 µM (inactive)

$$$$
>  <compound>
c1ccc2c3c(c(N4CCNCC4)nc2c1)CCCC3

>  <measured target>
Malme-3M

>  <GI50>
19.9 µM (inactive)

$$$$
>  <compound>
O=C(CBr)c1ccc2cc(Br)c3ccccc3c2c1

>  <measured target>
Malme-3M

>  <GI50>
15.9 µM (inactive)

$$$$
>  <compound>
O=C(OCC1CO1)c1cccs1 (stereo not given)

>  <measured target>
Malme-3M

>  <GI50>
> 100 µM (inactive)

$$$$
>  <compound>
CN(CC(=O)O)Cc1c[nH]c2ccccc12

>  <measured target>
Malme-3M

>  <GI50>
> 100 µM (inactive)

$$$$
>  <compound>
OC(Cc1cccnc1)(c1ccccc1)c1ccccc1

>  <measured target>
Malme-3M

>  <GI50>
> 100 µM (inactive)

$$$$
